Assay: Volume of distribution at steady state in dog at 0.5 mg/kg, iv
Format: ADME, organism-based, Canis lupus familiaris
Design: dose 0.5 mg/kg, route intravenous
Condition parameters: in vivo, read-out: Vdss
Measure: Vd (L/kg)
The figure you give is taken to be in L/kg; do not add the unit.

Input: Could you tell me which Vd is on file for `CC(C)(C)c1cc(NC(=O)NCc2ccccc2Sc2ccc3nnc(-c4ccccc4SCCO)n3c2)n(-c2ccc(O)c(Cl)c2)n1` ?
Output: 0.06

====

Assay: Oral bioavailability in rat at 3 mg/kg
Type: ADME, organism-based
Condition parameters: in vivo
Measure: bioavailability

Input: Could you tell me which bioavailability is on file for `CSC(C)(C)c1cc(NC(=O)NCc2ccccc2Sc2ccc3nnc(C(C)C)n3c2)n(-c2cccc(O)c2)n1` ?
Output: < 5%
